System: UACC-257 melanoma
test-name: NCI-60 one-dose screen, 48 h (100 = growth as untreated, 0 = no growth, -100 = all killed)
experimental-conditions: 10 µM unless noted
The panel holds about 83,000 compounds, 20% with a hit somewhere; the sample as a whole holds those more often.
measured-quantity: growth (%)
Could you give me the number in %? Just the number is fine.

Task item: Quick one: growth of CCCCCCCOc1ccc(S(=O)(=O)Nc2ccc(C)c(F)c2C(=O)O)cc1 ?
Reply: 102

Task item: Dear colleague, I am looking for the recorded growth of the following compound: CCCn1c(NC(=O)c2cccc(C(N)=O)c2)nc2ccc(CN3CCCCC3)cc21
Reply: 121

Task item: Give the measured growth of Cn1cc(-c2cc(N)n3nc(-c4c[nH]c5ccccc45)cc3n2)c2cc(Cl)ccc21 .
Reply: -84.3

Task item: I am curious: what growth value has been reported for CC1=C(C(=O)Nc2ccccc2)C(c2cccc3ccccc23)n2c(nc3ccccc32)N1 (stereo not given) ?
Reply: 45.1

Task item: Entry under review: Cc1nn(-c2ccccc2)c2nc(C)n(C(=O)N/N=C/c3ccccc3)c(=O)c12 . Reported growth?
Reply: 106

====

Tested on: NCI-H322M lung
test-name: NCI-60 one-dose screen, 48 h
experimental-conditions: 10 µM unless noted
This is part of a sample that, as a whole, favours compounds with a hit. Of some 83,000 tested, about 20% had one in any assay. Active and inactive are the calls of the source. The calls were made as follows: active = growth percent below 10; inactive = the rest.
API: response.call in 1 for active, 0 for inactive

Task item: Which outcome was assigned to COc1cc(CNC(=O)[C@]23CCC(C)(C)CC2C2=CCC4[C@@]5(C)CCC(OC(C)=O)C(C)(C)C5CC[C@@]4(C)[C@]2(C)CC3)ccc1OCc1cn(-c2ccc(Cl)cc2Cl)nn1 (stereo partly drawn) in this test?
Reply: 0

Task item: Answer briefly: the call reported for CCCCCCCCc1cccc(CC(=O)Nc2ccc(C)cc2C(=O)O)c1 in this assay.
Reply: 0

Task item: Test call for this compound, please: Nc1ccc(-c2ccc3ncnc(N4CCc5cc(F)c(Cl)cc54)c3c2)cn1
Reply: 1

Task item: Record lookup: outcome of this test for O=C(N/N=C/c1ccsc1)c1[nH]c2ccc(Br)cc2c1-c1ccccc1 ?
Reply: 1

Task item: Write down the call the test reported for this compound. Item: COc1cc(/C=C/C(=O)c2cnn(-c3cc(=O)[nH]c4ccc(Cl)cc34)c2C)cc(OC)c1OC
Reply: 1

Task item: In this assay, the call recorded for C=CC(=O)Nc1ccc(C(=O)/C=C/c2ccc(N(C)C)cc2)c(O)c1 was what?
Reply: 0

Task item: Tell me the recorded outcome of this test for O=C(c1ccc(Cl)cc1)C1[C@H](c2ccccc2Cl)[C@@H](c2ccccc2)NC12C(=O)Nc1ccc(Cl)cc12 (stereo partly drawn) .
Reply: 1

Task item: Call for entry COc1cc(CNC(=O)C[C@H](C)CCC=C(C)C)ccc1OCc1cn(-c2cccc(C(F)(F)F)c2)nn1 :
Reply: 0

====

System: CAKI-1 renal
test-name: NCI-60 one-dose screen, 48 h (100 = growth as untreated, 0 = no growth, -100 = all killed)
experimental-conditions: 10 µM unless noted
The panel holds about 83,000 compounds, 20% with a hit somewhere; the sample as a whole holds those more often. Activity calls are given as the source filed them. How the source made its calls: active means growth percent below 10; inactive means the rest.
Kindly state growth for each of the entries shown.

Task item: Give its growth value. Item: Cn1cc(-c2cc(N)n3nc(-c4c[nH]c5ccc(Cl)cc45)cc3n2)c2cccnc21
Reply: -62.3% (active)

Task item: Quick one: growth for O=C(N/N=C/c1ccc(Br)o1)c1[nH]c2ccc(Br)cc2c1-c1ccccc1 ?
Reply: 2.87% (active)

Task item: So what does the record say about growth for Fc1ccc(N2CC(Cn3c(C(F)(F)F)cc4c(Cl)ncnc43)C2)c(F)c1 ?
Reply: 71.7% (inactive)

Task item: Need growth, item COc1ccc(C(=O)/C=C/c2ccc3c(c2)OCCO3)cc1S(N)(=O)=O
Reply: 85.6% (inactive)

Task item: Dear colleague, I am looking for the recorded growth of the following compound: OC(c1ccccc1)(c1ccccc1)C1CCN(c2ccc3nnc(Cl)n3n2)CC1
Reply: 30.8% (inactive)

Task item: Which measured growth value corresponds to O=C(N/N=C/c1ccsc1)c1[nH]c2ccc(Br)cc2c1-c1ccccc1 ?
Reply: -21.8% (active)

Task item: // growth lookup, key: COc1ccc2[nH]cc(-c3cc4nc(-c5cn(C)c6ncccc56)cc(N)n4n3)c2c1
Reply: -65.2% (active)

Task item: Bench note: what growth did S=C(Nc1ccccc1)Nc1ccc(OCc2nc3ccc(Cl)cc3[nH]2)cc1 show?
Reply: 84.1% (inactive)

Task item: Looking for the measured growth of COc1c(B(O)O)cc(F)cc1-c1nc2c(F)cc3[nH]ncc3c2c2c1CCCC2 , can you help?
Reply: 0.122% (active)

Task item: Suppose we examine the compound O=C(Nc1ccc(-c2ccc3c(c2)NC(=O)/C3=C\c2ccc[nH]2)cc1)Nc1ccc(Cl)c(Cl)c1 ; what growth value has been reported?
Reply: 39.1% (inactive)

Task item: Please look up its growth: O=C(c1ccc(O)cc1)C1[C@H](c2ccc(Cl)cc2)[C@@H](c2ccccc2)NC12C(=O)Nc1ccc(Br)cc12 (some centres undefined)
Reply: 3.93% (active)

Task item: For the compound shown here, CC(C)(C)OC(=O)N1C/C(=C\c2ccc(F)cc2)C(=O)/C(=C/c2ccc(F)cc2)C1 , give the reported growth.
Reply: -37.4% (active)

Task item: Entry under review: O=[N+]([O-])c1cccc(-c2nnc3c(/C=C/c4ccc(F)cc4)nc4ccccc4n23)c1 . Reported growth?
Reply: 88.8% (inactive)

Task item: Recorded growth for COc1ccc(-c2cc(C(=O)N=Nc3c(O)[nH]c4ccc(Cl)cc34)c3ccccc3n2)cc1 , please?
Reply: 44.6% (inactive)

Task item: Recorded growth of CCCCCCCCc1cccc(CC(=O)Nc2ccc(C)cc2C(=O)O)c1 , please.
Reply: 36.1% [25 µM] (inactive)

Task item: What growth value was documented for this compound, COc1ccc(C(=O)NNC(=O)CSc2nc3sc4c(c3c(=O)n2-c2ccc(Cl)cc2)CCCC4)cc1 ?
Reply: 74% (inactive)

Task item: Quick one: growth for CC1=C(C(=O)OCc2ccccc2)C(c2cccc3ccccc23)n2c(nc3ccccc32)N1 (centres undefined) ?
Reply: 30.5% (inactive)

Task item: # get_value(readout='growth', item= Cn1cc(-c2cc(N)n3nc(-c4c[nH]c5ccccc45)cc3n2)c2cc(Cl)ccc21 )
Reply: -63.6% (active)

Task item: Would you mind telling me what growth value was observed for CN(C)c1nc(NCCNS(=O)(=O)c2ccc(C(=O)/C=C/c3ccc(F)cc3)cc2)nc(N2CCOCC2)n1 ?
Reply: 57.3% (inactive)

Data provenance is PubChem BioAssay (NCI).
